The measurements presented in this section are drawn from patent US11083714B2.

test: Tissue distribution after oral administration; format: in vivo, mice; conditions: mouse; brain; oral 200 mg/kg
MEASURE_NAME: Tmax
Kindly write the number and append the unit.

Quick one: Tmax for c1ccc2c(c1)[nH]c1c2cc[n+]2ccccc12 [Compound 13-9-1, 12H-indolo[2,3-a]quinolizin-5-ium] ?
4 h

---

experiment: Tissue distribution after oral administration; assay type: in vivo, mice; details: mouse; kidney; oral 200 mg/kg
MEASURE_NAME: Tmax
Kindly write the number and append the unit.

Quick one: Tmax for c1ccc2c(c1)[nH]c1c2cc[n+]2ccccc12 [Compound 13-9-1, 12H-indolo[2,3-a]quinolizin-5-ium] ?
4 h

---

assay: Tissue distribution after oral administration; format: in vivo, mice; details: mouse; pancreas; oral 200 mg/kg
MEASURE_NAME: Tmax (h)
The answer is to be given in h; state only the numeric part.

Quick one: Tmax for c1ccc2c(c1)[nH]c1c2cc[n+]2ccccc12 [Compound 13-9-1, 12H-indolo[2,3-a]quinolizin-5-ium] ?
4

---

assay: Tissue distribution after oral administration; type: in vivo, mice; conditions: mouse; colon; oral 200 mg/kg
MEASURE_NAME: Tmax

Quick one: Tmax for c1ccc2c(c1)[nH]c1c2cc[n+]2ccccc12 [Compound 13-9-1, 12H-indolo[2,3-a]quinolizin-5-ium] ?
3 h

---

assay: Tissue distribution after oral administration; type: in vivo, mice; conditions: mouse; ovary; oral 200 mg/kg
MEASURE_NAME: Tmax (h)
The answer is to be given in h; state only the numeric part.

Quick one: Tmax for c1ccc2c(c1)[nH]c1c2cc[n+]2ccccc12 [Compound 13-9-1, 12H-indolo[2,3-a]quinolizin-5-ium] ?
4

---

assay: Tissue distribution after oral administration; assay type: in vivo, mice; conditions: mouse; adrenal gland; oral 200 mg/kg
MEASURE_NAME: Tmax

Quick one: Tmax for c1ccc2c(c1)[nH]c1c2cc[n+]2ccccc12 [Compound 13-9-1, 12H-indolo[2,3-a]quinolizin-5-ium] ?
4 h

---

assay: Tissue distribution after oral administration; type: in vivo, mice; settings: mouse; heart; oral 200 mg/kg
MEASURE_NAME: Tmax

Quick one: Tmax for c1ccc2c(c1)[nH]c1c2cc[n+]2ccccc12 [Compound 13-9-1, 12H-indolo[2,3-a]quinolizin-5-ium] ?
4 h

---

assay: Tissue distribution after oral administration; format: in vivo, mice; details: mouse; muscle; oral 200 mg/kg
MEASURE_NAME: Tmax (h)
The answer is to be given in h; state only the numeric part.

Quick one: Tmax for c1ccc2c(c1)[nH]c1c2cc[n+]2ccccc12 [Compound 13-9-1, 12H-indolo[2,3-a]quinolizin-5-ium] ?
4
